Subject of test: Cholinesterase (Equus caballus) (UniProt P81908)
Sequence (P81908 whole entry): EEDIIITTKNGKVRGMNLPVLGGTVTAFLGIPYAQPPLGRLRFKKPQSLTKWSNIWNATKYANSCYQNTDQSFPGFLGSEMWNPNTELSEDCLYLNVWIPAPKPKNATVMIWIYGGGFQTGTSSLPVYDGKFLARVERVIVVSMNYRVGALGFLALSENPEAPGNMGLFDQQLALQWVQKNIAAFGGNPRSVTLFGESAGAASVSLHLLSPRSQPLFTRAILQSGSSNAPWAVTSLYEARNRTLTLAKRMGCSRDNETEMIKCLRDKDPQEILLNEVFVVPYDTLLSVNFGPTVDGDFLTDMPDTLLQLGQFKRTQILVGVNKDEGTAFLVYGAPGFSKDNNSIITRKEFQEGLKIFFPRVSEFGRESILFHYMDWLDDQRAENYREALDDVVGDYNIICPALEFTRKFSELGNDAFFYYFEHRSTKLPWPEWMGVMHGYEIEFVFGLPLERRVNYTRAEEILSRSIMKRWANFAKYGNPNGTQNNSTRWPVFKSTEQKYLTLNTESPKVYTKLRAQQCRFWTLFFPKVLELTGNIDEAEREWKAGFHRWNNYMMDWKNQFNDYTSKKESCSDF
Test summary: Inhibition of BChE in horse serum using butyrylthiocholine iodide as substrate at 200 uM after 120 mins by Ellman's method relative to control
Listed here are compounds together with their documented inhibition.
Readout label: inhibition

[[record]]
smiles_code = "CC(C)[C@@H]1CC[C@@]2(C)[C@H]1[C@H]1CC[C@@H]3[C@@]4(C)CC[C@H](OS(=O)(=O)O)C(C)(C)[C@@H]4CC[C@@]3(C)[C@]1(C)C[C@@H]2OS(=O)(=O)O"
recorded_measurement = "87.8%"

[[record]]
smiles_code = "C=C(C=O)[C@@H]1CC[C@@]2(C)[C@H]1[C@H]1CC[C@@H]3[C@@]4(C)CC[C@H](OS(=O)(=O)O)C(C)(C)[C@@H]4CC[C@@]3(C)[C@]1(C)C[C@@H]2OS(=O)(=O)O"
recorded_measurement = "18.4%"

[[record]]
smiles_code = "C=C(C)[C@@H]1CC[C@@]2(C)[C@H]1[C@H]1CC[C@@H]3[C@@]4(C)CC[C@H](O)C(C)(C)[C@@H]4CC[C@@]3(C)[C@]1(C)C[C@@H]2OC(C)=O"
recorded_measurement = "51.2%"

[[record]]
smiles_code = "CC(C)[C@@H]1CC[C@@]2(C)[C@H]1[C@H]1CC[C@@H]3[C@@]4(C)CC[C@H](O)C(C)(C)[C@@H]4CC[C@@]3(C)[C@]1(C)C[C@@H]2O"
recorded_measurement = "14.3%"

[[record]]
smiles_code = "CC1(C)[C@@H](O)CC[C@]2(C)[C@H]3CC[C@@H]4[C@H]5[C@H]([C@@]6(C)CO6)CC[C@]5(C)[C@@H](O)C[C@@]4(C)[C@]3(C)CC[C@@H]12"
recorded_measurement = "19.4%"


----------
Listed here are compounds together with their documented pIC50.
Subject of test: Acetylcholinesterase (Torpedo californica, UniProt P04058)
Sequence (P04058 whole entry): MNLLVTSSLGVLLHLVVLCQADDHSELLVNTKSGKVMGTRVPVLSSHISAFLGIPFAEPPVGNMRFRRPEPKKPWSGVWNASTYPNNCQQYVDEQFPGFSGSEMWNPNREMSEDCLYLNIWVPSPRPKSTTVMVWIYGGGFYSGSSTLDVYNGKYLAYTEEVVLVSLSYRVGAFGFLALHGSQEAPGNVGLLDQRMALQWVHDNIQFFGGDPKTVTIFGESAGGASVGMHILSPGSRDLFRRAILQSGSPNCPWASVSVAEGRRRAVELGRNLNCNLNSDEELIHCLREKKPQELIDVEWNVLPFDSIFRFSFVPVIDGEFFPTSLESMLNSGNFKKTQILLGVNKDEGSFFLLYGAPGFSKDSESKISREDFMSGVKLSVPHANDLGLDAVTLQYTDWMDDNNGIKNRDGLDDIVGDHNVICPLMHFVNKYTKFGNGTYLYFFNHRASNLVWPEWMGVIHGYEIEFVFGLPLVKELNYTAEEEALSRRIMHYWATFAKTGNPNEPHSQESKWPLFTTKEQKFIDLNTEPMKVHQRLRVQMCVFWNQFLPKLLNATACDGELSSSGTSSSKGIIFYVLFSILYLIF
pIC50: −log10 of the molar value.
Readout label: pIC50

[[record]]
compound = "CC(C)[C@@H]1CC[C@@]2(C)[C@H]1[C@H]1CC[C@@H]3[C@@]4(C)CC[C@H](O)C(C)(C)[C@@H]4CC[C@@]3(C)[C@]1(C)C[C@@H]2O"
readout_label = "pIC50"
recorded_measurement = "< 3.70"

[[record]]
compound = "C=C(C)[C@@H]1CC[C@@]2(C)[C@H]1[C@H]1CCC3[C@@]4(C)CC[C@H](O)C(C)(C)[C@@H]4CC[C@@]3(C)[C@]1(C)C[C@@H]2O (stereo partly drawn)"
readout_label = "pIC50"
recorded_measurement = "< 3.70"

[[record]]
compound = "CC1(C)[C@@H](OS(=O)(=O)O)CC[C@]2(C)[C@H]3CC[C@@H]4[C@H]5[C@H]([C@@]6(C)CO6)CC[C@]5(C)[C@@H](OS(=O)(=O)O)C[C@@]4(C)[C@]3(C)CC[C@@H]12"
readout_label = "pIC50"
recorded_measurement = "< 3.70"


----------
Subject of test: Cholinesterase (Equus caballus) (UniProt P81908)
Test summary: Inhibition of BChE in horse serum using butyrylthiocholine iodide as substrate at 200 uM after 120 mins by Ellman's method relative to control
Readout label: inhibition

[[record]]
smiles_code = "C=C(C)[C@@H]1CC[C@@]2(C)[C@H]1[C@H]1CC[C@@H]3[C@@]4(C)CC[C@H](OC(=O)c5ccc(Br)cc5)C(C)(C)[C@@H]4CC[C@@]3(C)[C@]1(C)C[C@@H]2OC(=O)c1ccc(Br)cc1"
subject_of_test = "Cholinesterase (Equus caballus) (UniProt P81908)"
readout_label = "inhibition"
recorded_measurement = "18.4%"

[[record]]
smiles_code = "C=C(C)[C@@H]1CC[C@@]2(C)[C@H]1[C@H]1CC[C@H]3[C@@]4(C)CC[C@H](O)C(C)(C)[C@@H]4CC[C@@]3(C)[C@]1(C)C[C@@H]2O"
subject_of_test = "Cholinesterase (Equus caballus) (UniProt P81908)"
readout_label = "inhibition"
recorded_measurement = "42%"

[[record]]
smiles_code = "C=C(CO)[C@@H]1CC[C@@]2(C)[C@H]1[C@H]1CC[C@@H]3[C@@]4(C)CC[C@H](O)C(C)(C)[C@@H]4CC[C@@]3(C)[C@]1(C)C[C@@H]2O"
subject_of_test = "Cholinesterase (Equus caballus) (UniProt P81908)"
readout_label = "inhibition"
recorded_measurement = "32%"

